# subject-of-test: Sentrin-specific protease 8 (Homo sapiens)
# protocol-summary: blockers of human SENP8 peptidase activity – biochemical, luminescence, primary screen (AID 2540)
# particulars: purified SENP8, Z-RLRGG-aminoluciferin cleavage, at 10 µM
The campaign covered roughly 330,000 compounds. About 4,100 (1.2%) were called active. Rule as the data show it: active = inhibition above about 50%; inactive = the rest. The sample holds actives, similar compounds and a random draw of the others, so the mix is not that of the screen.
Possible outcomes: True for active, False for inactive

smiles-string | discrete-label
COc1ccc(-c2cc3ccc(OCc4nn[nH]n4)cc3oc2=O)cc1 | False
CCOC(=O)CSc1nnc(-c2ccc([N+](=O)[O-])cc2)o1 | False
Cc1ccc(OCc2nc3ccccc3n2C)cc1 | True
O=C(NCC1CC1)c1onc(CSc2ccccc2)c1C(=O)NCC1CC1 | False
COc1ccc(N(Cc2ccc(N(C)C)cc2)C(=O)c2ccc(S(C)(=O)=O)cc2)cc1 | False
CC(C)N(C(=O)Cn1cc(S(=O)(=O)CC(=O)N2CCOCC2)c2ccccc21)C(C)C | False
O=c1oc2cc(O)ccc2cc1-c1ccc(F)cc1 | True
CC(C)n1c(COc2ccccc2)nc2ccccc21 | False
CC(C)N(C(=O)Cn1cc(SCC(=O)N2CCCC2)c2ccccc21)C(C)C | True
CN1CCN(Cc2nc3cc(NC(=O)COc4ccc([N+](=O)[O-])cc4)ccc3n2C)CC1 | False
CC(=O)Oc1ccc(-c2nc3c(C)cccc3c(=O)o2)cc1 | False
